Please respond with reported TGI for every item in the list.
Tested on: COLO 205 colon
Test: NCI tumour cell line growth inhibition, 48 h

get_value(item= [N-]=[N+]=Nc1cc(=O)n(-c2ccccc2)c(=O)n1-c1ccccc1 , readout=TGI) returns > 100 µM

Lab note: measured TGI of O=C(CCc1ccc(O)c(O)c1)c1ccc(O)c(O)c1O was 34.3 µM

The recorded TGI for O=C1C(Br)=C(c2ccccc2)C(c2ccccc2)=C1c1ccccc1 is 3.69 µM

TGI reading for CNC(=O)C(C)NC(=O)C(Cc1ccccc1)NC(=O)OC(C)(C)C (stereo unspecified) : > 100 µM

Lab note: measured TGI of N=C(N)C(N=Nc1ccccc1)C(=N)N (stereo unspecified) was > 100 µM

Form field TGI, entry CCCOc1ccc(/C=C/C2=[N+](CCO)CCO2)cc1 : > 100 µM

TGI reading for CCOC(=O)CCc1c(C)c2ccc(O)cc2oc1=O : > 100 µM

# TGI of COC(=O)C(Cc1ccccc1)C(=O)NC(CNC(=O)OCc1ccccc1)C(=O)OCc1ccccc1 (stereo unspecified) = 37.7 µM

Cc1nc(Nc2ccccc2)sc1C(=O)NNC(N)=O yielded TGI of > 100 µM

Short answer for Cc1c(Cl)c(=O)oc2cc(OCC(=O)c3ccccc3)ccc12 : TGI was > 100 µM

Looking up CC(=O)/C(=C/N1C(=O)CC(=O)NC1=S)C(=O)Nc1ccccc1C , I see its TGI listed as > 100 µM

Input CC(=O)NNc1nc(C)c(C(/C=C/c2ccccc2O)=N/NC(=O)c2ccncc2)s1 . Output TGI: > 100 µM

Input O=c1[nH]cnc2c1nnn2[C@@H]1O[C@H](CO)[C@@H](O)[C@H]1O . Output TGI: 20.6 µM

Entry under test: C/C(=C\c1csc(C)n1)[C@@H]1C[C@@H]2O[C@]2(C)CCC[C@H](C)[C@H](O)[C@@H](C)C(=O)C(C)(C)[C@@H](O)CC(=O)O1 (tested in a mixture with another compound) . Its TGI was 0.119 µM

Note to self: TGI recorded for CC1N(O)C(c2ccccc2)C(c2ccccc2)=[N+]1[O-] (stereo unspecified) was > 100 µM

GET /value?item= COc1ccc2c(c1)CC1NC2Cc2ccccc21 (stereo unspecified) &field=TGI returns > 100 µM

For O=C(/C=C/c1ccc2c(c1)OCO2)c1ccccc1 the compound record lists TGI as 36.7 µM

Record summary for BrC12C3C4C5C(C(C43)C13OCCO3)C52 (stereo unspecified) : reported TGI = > 100 µM

The compound listed as CC1=Cc2cc3[n-]c(cc4nc(cc5[n-]c(cc1n2)c(C)c5CCC(=O)O)C(CCC(=O)O)=C4C)cc3C.[Cu+2] shows TGI equal to > 100 µM

Reported TGI for CC1C(c2ccccc2)=CCON1c1ccccc1 (stereo unspecified) was > 100 µM

The compound identified as O=C1OC2(c3ccccc31)c1cc(I)c(O)c(I)c1Oc1c2cc(I)c(O)c1I registered its TGI at > 100 µM
